- target: TAAR1 (Mus musculus, UniProt Q923Y8)
- Construct: expressed in transfected cells; host or cells: HEK293 (ATCC # CRL-1573), stably transfected with pIRESneo2 expression plasmid; membranes prepared
- Sequence (Q923Y8 whole entry): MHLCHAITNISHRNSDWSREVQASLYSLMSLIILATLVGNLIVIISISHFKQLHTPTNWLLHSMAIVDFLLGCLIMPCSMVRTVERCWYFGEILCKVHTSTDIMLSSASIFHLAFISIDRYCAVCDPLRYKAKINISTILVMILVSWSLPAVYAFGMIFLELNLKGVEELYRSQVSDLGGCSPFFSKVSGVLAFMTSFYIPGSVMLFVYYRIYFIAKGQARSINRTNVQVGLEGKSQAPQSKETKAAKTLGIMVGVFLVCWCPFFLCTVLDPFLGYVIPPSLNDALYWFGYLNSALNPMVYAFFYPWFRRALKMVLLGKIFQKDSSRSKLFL
- testSummary: Radioligand binding assay on membranes of HEK293 cells stably expressing TAAR1
- conditionNotes: mouse TAAR1; radioligand [3H]-rac-2-(1,2,3,4-tetrahydro-1-naphthyl)-2-imidazoline at 60 nM; 4° C., 30 min
- Description: For the construction of expression plasmids the coding sequences of human, rat and mouse TAAR 1 were amplified from genomic DNA essentially as described by Lindemann et al.. […] Cells at confluence were rinsed with ice-cold phosphate buffered saline without Ca^2+ and Mg^2+ containing 10 mM EDTA and pelleted by centrifugation at 1000 rpm for 5 min at 4° C. […] Protein concentration was determined by the method of Pierce (Rockford, Ill.). […]
Structures can show the parent of a compound that is named as a salt.
Categories are assigned from the measured Ki using these intervals: lower band = under 0.01 µM, central band = from 0.01 µM up to 0.03 µM, upper band = 0.03 µM and over

## Input Kindly state the category for this molecule: Cc1cccc(Br)c1CC1=NCCN1
## Output central band

## Input Lab note: sort COc1cc(C)c(CC2=NCCN2)c(C)c1 into the matching Ki band.
## Output central band

## Input State the band of COc1cccc(CC2=NCCN2)c1OC
## Output central band

## Input Kindly state the category for this molecule: CCc1ccc(OC)c(CC)c1CC1=NCCN1
## Output upper band

## Input // bin(item) where item = Cc1c(C)c(C)c(CC2=NCCN2)c(C)c1C
## Output lower band

## Input Which class is correct for the following molecule? CCc1cccc(CC)c1Cc1ncc[nH]1
## Output central band

## Input Which Ki band matches Clc1cccc(CC2=NCCN2)c1Cl ?
## Output central band

## Input # classify by Ki band: COc1ccc2ccccc2c1CC1=NCCN1
## Output central band

## Input Sort CCc1cccc(C)c1CC1=NCCN1 into one of the categories.
## Output lower band

## Input Pick a category. Item: Cc1cccc(C(C)C2=NCCN2)c1C (racemic) [Example 18, hydrochloride]
## Output central band

## Input Exam item: assign Cc1cc(C)c(C)c(CC2=NCCN2)c1C to the correct category.
## Output lower band

## Input Please classify: COc1cc(Br)c(CC2=NCCN2)cc1OC [Example 34, hydrochloride]
## Output upper band

## Input Sort into band: c1ccc2c(CC3=NCCN3)csc2c1
## Output lower band

## Input Lab note: sort Clc1cccc(I)c1CC1=NCCN1 into the matching Ki band.
## Output central band

## Input Band of CCc1ccc(OCc2ccccc2)c(CC)c1Cc1ncc[nH]1 ?
## Output upper band

## Input Sort into band: Cc1ccc2ccoc2c1CC1=NCCN1
## Output central band

## Input Please indicate the class for Oc1ccc2ccccc2c1CC1=NCCN1 [Example 172, hydrochloride] based on its Ki.
## Output upper band

## Input Textbook exercise: identify the category of the molecule given here, Cc1cc(C(C)(C)C)cc(C)c1CC1=NCCN1 [Example 114, reference compound] , according to its measured value.
## Output lower band

## Input Bin? CCc1cc(Oc2ccccc2)cc(CC)c1Cc1ncc[nH]1
## Output central band

## Input Just checking, what class would you give CCc1cc(OC)cc(CC)c1Cc1ncc[nH]1 here?
## Output upper band

## Input Sort CCc1ccc(Oc2ccccc2)c(CC)c1Cc1ncc[nH]1 into one of the categories.
## Output central band

## Input // return the class label for c1cc2ccc(CC3=NCCN3)cc2o1 [Example 170, hydrochloride]
## Output central band
